procedure-text: qHTS assay to identify small molecule antagonists of the estrogen receptor beta (ER-beta) signaling pathway - cell viability counter screen (AID 1259382); further: nearly all actives have a fitted effect of over 55% in size
stated-conditions: ER-beta-UAS-bla HEK293T viability, CellTiter-Glo luminescence, 16 h; series mostly up to 92.4 µM
Records with an inconclusive call do not appear. Active and inactive are the calls of the source. The call rests on the fitted dose curve; in most records, active means well fitted cell-killing curve with a large enough effect in the repeat runs; inconclusive means weak or mixed curves; inactive means flat fitted curve, though single readings scatter.
Hello, when you answer, please use one of the following outcomes: T for active, F for inactive

Please review the following examples before continuing.
CN: F
C[C@]12Cc3cn[nH]c3C[C@@H]1CC[C@@H]1[C@@H]2CC[C@@]2(C)[C@H]1CC[C@]2(C)O: T

### Prompt # outcome recorded in this test, key = Oc1ccc(Cl)c(Cl)c1
### Response F

### Prompt Could you kindly confirm the outcome this assay logged for [O-][Cl+3]([O-])([O-])O ?
### Response F

----------
procedure-text: A CellTox Green Cytotoxicity Assay to monitor cytotoxicity in HepG2 cells - 40 hour (AID 1224879); further: nearly all actives have a fitted effect of over 40% in size; further: potency means the concentration at half of the fitted maximal effect
stated-conditions: CellTox Green fluorescence; series mostly up to 76.8 µM
Excerpt: National Center for Advancing Translational Sciences [NCATS] NIH Chemical Genomics Center [NCGC] U.S. Environmental Protection Agency [EPA] National Institutes of Environmental Health Sciences [NIEHS] National Toxicology Program [NTP] Cell-based models are critical for drug discovery. […] Viable cells produce no appreciable increases in fluorescence. Therefore, the fluorescence signal produced by the binding interaction with dead cell DNA is proportional to cytotoxicity. […]
Records with an inconclusive call do not appear. Activity calls are given as the source filed them. Calls follow the shape of the dose curve; as a rule, active = well fitted activation curve with a large enough effect in the repeat runs; inconclusive = weak or mixed curves; inactive = flat fitted curve, though single readings scatter.
quantity-kind: Potency

Known Potency results, listed for orientation:
O=[N+]([O-])c1cc(C(F)(F)F)c(Cl)c([N+](=O)[O-])c1Nc1ncc(C(F)(F)F)cc1Cl: 3890 nM (active)
c1csc(-c2ccc(-c3cccs3)s2)c1: inactive
[Cl-].[Cl-].[Sn+2]: inactive
CCC[CH2][Sn]([CH2]CCC)([CH2]CCC)[O][Sn]([CH2]CCC)([CH2]CCC)[CH2]CCC: 537 nM (active)
COc1cnc(OC)n2nc(NS(=O)(=O)c3c(OCC(F)F)cccc3C(F)(F)F)nc12: inactive

### Prompt Read the entry Cc1cnc2c(C(=O)O)c(Cl)ccc2c1 and write its reported Potency.
### Response inactive

### Prompt // Input: CCOP(=O)(OCC)Oc1cc(C)nc(C(C)C)n1 . Output its Potency only.
### Response inactive

### Prompt Report Potency for CN/C(=N\[N+](=O)[O-])NCc1cnc(Cl)s1
### Response inactive

### Prompt // Input: O=C(NC(=O)c1ccccc1Cl)Nc1ccc(OC(F)(F)F)cc1 . Output its Potency only.
### Response inactive

### Prompt Give the reported Potency for this compound. CCCCON=O
### Response inactive

### Prompt Given the compound CN(C)CCc1c[nH]c2ccccc12 , write its reported Potency.
### Response inactive

### Prompt Return Potency (reported value) for this compound: Brc1ccc(Oc2ccc(Br)cc2Br)c(Br)c1
### Response inactive

----------
procedure-text: qHTS assay for small molecules that induce genotoxicity in human embryonic kidney cells expressing luciferase-tagged ATAD5 (AID 651632); further: on the % scale 0 is the no-effect control and ±100 the full control effect; nearly all actives have a fitted effect of over 15% in size
stated-conditions: HEK293T ATAD5-luciferase induction, 16 h; series mostly up to 83.3 µM
Results filed as inconclusive are left out. Calls of active or inactive are those of the source. Calls follow the shape of the dose curve; as a rule, active = well fitted activation curve with a large enough effect in the repeat runs; inconclusive = weak or mixed curves; inactive = no such curve, though single readings can be large or run the other way.
quantity-kind: activation

Oc1ccc(Cl)c(Cl)c1: inactive
CCC1(CC)C(=O)N=C(O)NC1=O: inactive
CC1(C)[C@H](/C=C2\CCSC2=O)[C@@H]1C(=O)OCc1coc(Cc2ccccc2)c1: inactive
Oc1ccc([C@H]2CNCc3c2ccc(O)c3O)cc1O: inactive
Clc1c(Cl)c(Cl)c(Cl)c(Cl)c1Cl: 3.25% [at 8.08 µM] (inactive)

Proceeding to the next compound to report its activation.
### Prompt Please list activation recorded for the compound Cc1cc(C2CC2)nc(Nc2ccccc2)n1
### Response inactive
